Listed next: entries and their corresponding Cloud Point Data 37% a.e. K + glyphosate at 12 wt % loading.
Experiment: Cloud point of aqueous concentrate compositions
Format: physicochemical
Conditions: 12 wt % surfactant

Below, each entry is followed by its recorded Cloud Point Data 37% a.e. K + glyphosate at 12 wt % loading result.
{"columns": ["Compound", "Result"],
 "data": [
  ["CCCCCCCCNCC(O)C(O)C(O)C(O)CO (stereo not shown)", ">90 °C"],
  ["NCCOCCOCCN", ">90 °C"],
  ["CCCCN(CCCC)CCCN", ">90 °C"]
]}

Q: Fill blank: measured Cloud Point Data 37% a.e. K + glyphosate at 12 wt % loading of the compound CC(C)CC(C)CC(C)COCCCNCCCN (stereo not shown) is ____.
Ans: >90 °C
